Cited source for all entries: paper PMC5540273

- Test system: EPHB1;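 also: KINOMEscan kinase panel screen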
- stated-conditions: concentration: 1 μM, replicates: in singlicate; n = 1
Please go through the items and note down their %Inh.
Form entry: value (%) — number only.

Problem: Which value of %Inh has been reported for COc1ccc(CNC(=O)NC2CCN(c3ccnc(Nc4ccc(F)cc4)n3)CC2)cc1 in the records?
Result: 1

Problem: What measured %Inh goes with CC(C)(C)c1ccc2nccc(Nc3cccc(O)c3)c2c1 ?
Result: 22

Problem: Consider the compound shown here: COc1ccc(Nc2nccc(NCCNC(=O)c3cc4ccccc4s3)n2)cc1 What is its recorded %Inh?
Result: 16

Problem: Item under review: CC(C)c1nc(-c2cccc(NS(=O)(=O)c3c(F)cccc3F)c2F)c(-c2ccnc(Nc3ccc(N4CCOCC4)nc3)n2)s1 . Reported %Inh?
Result: 40

Problem: GET /values?readout=%Inh&item= Fc1ccc(-c2ncn(C3CCNCC3)c2-c2ccnc(Oc3ccc(-c4ccccc4)cc3)n2)cc1
Result: 10

Problem: Which %Inh is listed for COc1cc(Nc2nccc(-c3c(-c4cccc(NC(=O)c5c(F)cccc5F)c4)nn4ccccc34)n2)cc(OC)c1OC ?
Result: 14

Problem: Look up %Inh: Cl.c1ccc(-c2ccc3c(Nc4ccc5[nH]ncc5c4)ccnc3c2)nc1
Result: 13

Problem: May I ask what %Inh has been recorded for Cn1cc(-c2ccc3c(c2)CCN3C(=O)Cc2cccc(F)c2)c2c(N)ncnc21 ?
Result: 0
